Biological target: T1, SARS-COV-2 RBD (SARS-COV-2, UniProt P0DTC2 319-539)
T1 construct: also called WT RBD
Test: ELISA, RBD coated
Class (by EC50) -- L = under 2 ng/mL, M = from 2 ng/mL up to 3 ng/mL, H = 3 ng/mL and over

Incoming: Which band does C865 (antibody, V domains shown, IgG; V domains only) VH: EVQLLESGGGLVQPGGSLRLSCVASRFIFSRYALSWVRQAPGKGLEWVSGISGSGHSTHYADSVTGRFTISRDNSKNTVYLQMSSLRAEDTAVYYCAKGPRSNYDYFESWGQGTLVTVSS VL: DIQLTQSPSSLSASVGDRVTITCRASQGISSALAWYQQRPGKAPRLLIYDASSLDSGVPSRFSGSGSGTDFTLTISSLQSEDFATYYCQQFINNPLTFGGGTKVEIK fall in?
Outgoing: M

Incoming: Which band does C879 (antibody, V domains shown, IgG; V domains only) VH: QVQLQESGPGLVKPSQTLSLTCGVSGDSISSGGHFWSWVRQHPGTGLEWIAYSPFSGTTYYNPSLKSRVTLSVDTSKNQFFLSLTSVTDADTAVYFCARVKGWLRGYFDHWGQGVLVTVSS VL: NFMLTQPHSVSESPGKTVTISCTASSGNIVNNYVQWYQQRPGSAPIIVIYEDAQRPSGVPDRFSGSIDTSSNSASLTISGLKTEDEADYYCQSYEIDSHVVFGGGTRLTV fall in?
Outgoing: H

New cases:
Incoming: Which band does C902 (antibody, V domains shown, IgG; V domains only) VH: EVQLVQSGAEVKKPGESLRISCKGSGYSFHTYWIHWVRQMPGKGLEWMGKIDPSDSYTNYSPSFQGHVTFSADRSISTAYLQWSSLKASDTATYYCARLSWSPPTRTTDEKNWFDPWGQGTLVTVSS VL: DIQLTQSPSFLAASAGDRVTITCRASQGISSYLAWYQQKPGKAPKVLIYAASTLQSGVPSRFSGSGSGTEFTLTISSLQPEDCATYYCQQFNSDPLTFGGGTKVEIK fall in?
Outgoing: H

Incoming: Which band does C1038 (antibody, V domains shown, IgG; V domains only) VH: QVQLVQSGAEVKKPGASVKVSCKASGYTFTSYYMHWVRQAPGQGLEWMGIINPSGGSTRYAQKFQGRVTMTRDTSTSTVYMELSSLRSEDTAVYYCAREGVGGTSYFDYWGQGTLVTVSS VL: SYELTQPPSVSVAPGKTARITCGGNNIGSKSVHWYQQKPGQAPVLVVYDDSDRPSGIPERFSGSNSGNTATLTISRVEAGDEADYYCQVWDSSSDPYVFGTGTKVTVL fall in?
Outgoing: M
